Type: in vivo, healthy adults (human)
run_parameters: human, plasma, oral, 240 mg
assay_metric: Cmax
Could you kindly put the unit after your number?

Input line: Query (compound): `CN(C)c1cc(CNCC(C)(C)C)c(O)c2c1C[C@H]1C[C@H]3[C@H](N(C)C)C(O)=C(C(N)=O)C(=O)[C@@]3(O)C(O)=C1C2=O` ; field requested: Cmax
Output line: 596 ng/mL

---

Type: in vivo, healthy adults (human)
run_parameters: human, plasma, po, 300 mg
assay_metric: AUC(0-inf) (ng·h/mL)
Number only, in ng·h/mL; omit the unit.

Input line: Can you look up the measured AUC(0-inf) of CN(C)c1cc(CNCC(C)(C)C)c(O)c2c1C[C@H]1C[C@H]3[C@H](N(C)C)C(O)=C(C(N)=O)C(=O)[C@@]3(O)C(O)=C1C2=O [Omadacycline] for me?
Output line: 8690
